test: Half life in CD-1 mouse at 20 mg/kg, iv measured upto 24 hrs by HPLC-MS/MS analysis; assay type: ADME, organism-based; conditions: in vivo
attributeMeasured: half-life (h)
Return type: number; implicit unit h.

// half-life lookup, compound = CC(C)C1CCN1Cc1ccc(CNC(=O)c2ccc3nncn3c2)cc1 (stereo unspecified) , result: 1.85

====

assay: Metabolic stability in mouse liver microsome assessed as half life; type: ADME; conditions: liver microsomes
attributeMeasured: half-life (min)
Please respond with the number in min and leave the unit unwritten.

"O=C(NC1CCC1)c1ccc2nc(-c3cccc(NS(=O)(=O)NCCN4CCCCC4)c3)cn2c1" has a reported half-life of 9.3

The values you see were collected from ChEMBL document CHEMBL6078648.
